Where do the numbers come from? From PubChem BioAssay AID1963979.

- Tested on: 361931-004-R-J1-PDC multicell spheroid viability
- protocolNotes: Anticancer human tumor 361931-004-R-J1-PDC patient-derived colon adenocarcinoma cell line growth inhibition [PI3K]
- testConditions: second compound 0.01 µM; first compound 0.316 µM; hits give low values
Provide the reported viability, T/C of each item.
All answers are understood in %, so give the number only.

Bench note, 361931-004-R-J1-PDC multicell spheroid viability: entry CCN1CCN(Cc2ccc(Nc3ncc(F)c(-c4cc(F)c5nc(C)n(C(C)C)c5c4)n3)nc2)CC1 + CC(Nc1ccc2c(c1)OCCn1cc(N3C(=O)OCC3C(F)F)nc1-2)C(N)=O , its viability, T/C = 86.1

Record for CCCS(=O)(=O)Nc1ccc(F)c(C(=O)c2c[nH]c3ncc(-c4ccc(Cl)cc4)cc23)c1F + CC(Nc1ccc2c(c1)OCCn1cc(N3C(=O)OCC3C(F)F)nc1-2)C(N)=O under target or system 361931-004-R-J1-PDC multicell spheroid viability: viability, T/C reported as 81.8

# viability, T/C measured on 361931-004-R-J1-PDC multicell spheroid viability for item CC1(C)CCC(Nc2ncc(C(F)(F)F)c(-c3c[nH]c4c(P(C)(C)=O)c(C#N)ccc34)n2)CN1 (stereo not given) + CC(Nc1ccc2c(c1)OCCn1cc(N3C(=O)OCC3C(F)F)nc1-2)C(N)=O = 75

361931-004-R-J1-PDC multicell spheroid viability data for CC1(C)CCC(CN2CCN(c3ccc(C(=O)NS(=O)(=O)c4ccc(NCC5CCOCC5)c([N+](=O)[O-])c4)c(Oc4cnc5[nH]ccc5c4)c3)CC2)=C(c2ccc(Cl)cc2)C1 + COc1c(OCCCN2CCOCC2)ccc2c3n(c(=NC(=O)c4cnc(N)nc4)nc12)CCN3 ; its viability, T/C: 104

Field viability, T/C (system: 361931-004-R-J1-PDC multicell spheroid viability) for entry C=CC(=O)N1CCN(c2nc(=O)n(-c3c(C)ccnc3C(C)C)c3nc(-c4c(O)cccc4F)c(F)cc23)C(C)C1 (stereo not given) + COc1c(OCCCN2CCOCC2)ccc2c3n(c(=NC(=O)c4cnc(N)nc4)nc12)CCN3 = 92.6

The molecule C=CC(=O)N1CCN(c2nc(=O)n(-c3c(C)ccnc3C(C)C)c3nc(-c4c(O)cccc4F)c(F)cc23)C(C)C1 (stereo not given) + CC(Nc1ccc2c(c1)OCCn1cc(N3C(=O)OCC3C(F)F)nc1-2)C(N)=O , when measured on 361931-004-R-J1-PDC multicell spheroid viability, yielded viability, T/C of 99.5

viability, T/C of CC(C)NCC(C(=O)N1CCN(c2ncnc3c2C(C)CC3O)CC1)c1ccc(Cl)cc1 (stereo not given) + CC(Nc1ccc2c(c1)OCCn1cc(N3C(=O)OCC3C(F)F)nc1-2)C(N)=O , assay on 361931-004-R-J1-PDC multicell spheroid viability, is 75.9

The molecule Cn1nccc1Nc1nccc(-c2ccn(C(CO)c3ccc(Cl)c(F)c3)c(=O)c2)n1 (stereo not given) + COc1c(OCCCN2CCOCC2)ccc2c3n(c(=NC(=O)c4cnc(N)nc4)nc12)CCN3 , tested on 361931-004-R-J1-PDC multicell spheroid viability, showed viability, T/C of 88.7

Item CC(Cn1ccc(-c2ccc(C#N)c(Cl)c2)n1)NC(=O)c1cc(C(C)O)[nH]n1 (stereo not given) + CC(Nc1ccc2c(c1)OCCn1cc(N3C(=O)OCC3C(F)F)nc1-2)C(N)=O ; assay system 361931-004-R-J1-PDC multicell spheroid viability; viability, T/C reported as 102

Measured viability, T/C (361931-004-R-J1-PDC multicell spheroid viability), entry CC(Cn1ccc(-c2ccc(C#N)c(Cl)c2)n1)NC(=O)c1cc(C(C)O)[nH]n1 (stereo not given) + COc1c(OCCCN2CCOCC2)ccc2c3n(c(=NC(=O)c4cnc(N)nc4)nc12)CCN3 : 99.1

* * *

- Tested on: 361931-004-R-J1-PDC multicell spheroid viability
- protocolNotes: Anticancer human tumor 361931-004-R-J1-PDC cell line growth inhibition [PI3K];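 further: spheroids exposed to agents for seven days before readout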
- testConditions: second compound 0.0316 µM; first compound 0.316 µM; hits give low values
Under this convention, t denotes viability, T/C strictly below 90% and f denotes viability, T/C at or above 90%.

Input: Determine if CC(C)NCC(C(=O)N1CCN(c2ncnc3c2C(C)CC3O)CC1)c1ccc(Cl)cc1 (stereo not given) + COc1c(OCCCN2CCOCC2)ccc2c3n(c(=NC(=O)c4cnc(N)nc4)nc12)CCN3 shows viability, T/C strictly lower than 90%.
Output: f

Input: Answer whether the compound C=CC(=O)N1CCN(c2nc(=O)n(-c3c(C)ccnc3C(C)C)c3nc(-c4c(O)cccc4F)c(F)cc23)C(C)C1 (stereo not given) + CC(Nc1ccc2c(c1)OCCn1cc(N3C(=O)OCC3C(F)F)nc1-2)C(N)=O has viability, T/C strictly less than 90%
Output: f

Input: Would you kindly verify if viability, T/C of CCN1CCN(Cc2ccc(Nc3ncc(F)c(-c4cc(F)c5nc(C)n(C(C)C)c5c4)n3)nc2)CC1 + COc1c(OCCCN2CCOCC2)ccc2c3n(c(=NC(=O)c4cnc(N)nc4)nc12)CCN3 is strictly less than 90%?
Output: t

Input: Please indicate whether the reported viability, T/C of CC(Cn1ccc(-c2ccc(C#N)c(Cl)c2)n1)NC(=O)c1cc(C(C)O)[nH]n1 (stereo not given) + Cc1nc(NC(=O)N2CCCC2C(N)=O)sc1-c1ccnc(C(C)(C)C(F)(F)F)c1 is strictly below 90%.
Output: f

Input: Find out if reported viability, T/C for CCCS(=O)(=O)Nc1ccc(F)c(C(=O)c2c[nH]c3ncc(-c4ccc(Cl)cc4)cc23)c1F + CC(Nc1ncnc2nc[nH]c12)c1cc2cccc(Cl)c2c(=O)n1-c1ccccc1 is less than 90%
Output: f

Input: Please check: viability, T/C for CC1(C)CCC(CN2CCN(c3ccc(C(=O)NS(=O)(=O)c4ccc(NCC5CCOCC5)c([N+](=O)[O-])c4)c(Oc4cnc5[nH]ccc5c4)c3)CC2)=C(c2ccc(Cl)cc2)C1 + Cc1nc(NC(=O)N2CCCC2C(N)=O)sc1-c1ccnc(C(C)(C)C(F)(F)F)c1 , strictly under 90% or not?
Output: f

Input: Please determine if CCCS(=O)(=O)Nc1ccc(F)c(C(=O)c2c[nH]c3ncc(-c4ccc(Cl)cc4)cc23)c1F + COc1c(OCCCN2CCOCC2)ccc2c3n(c(=NC(=O)c4cnc(N)nc4)nc12)CCN3 is below 90% in terms of viability, T/C.
Output: t

* * *

- Test system: 361931-004-R-J1-PDC multicell spheroid viability
- protocolNotes: Anticancer human tumor 361931-004-R-J1-PDC cell line growth inhibition [PI3K];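 further: spheroids exposed to agents for seven days before readout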
- testConditions: second compound 1 µM; first compound 0.949 µM; hits give low values
Answer each item with its documented viability, T/C.
A number alone suffices; assume %.

// sample Cn1cnc2c(F)c(Nc3ccc(Br)cc3Cl)c(C(=O)NOCCO)cc21 + CC(Nc1ncnc2nc[nH]c12)c1cc2cccc(Cl)c2c(=O)n1-c1ccccc1 , its viability, T/C was 81.4

response.value for Cn1cnc2c(F)c(Nc3ccc(Br)cc3Cl)c(C(=O)NOCCO)cc21 + Cc1nc(NC(=O)N2CCCC2C(N)=O)sc1-c1ccnc(C(C)(C)C(F)(F)F)c1 (field: viability, T/C) = 44.4

So for Cn1cnc2c(F)c(Nc3ccc(Br)cc3Cl)c(C(=O)NOCCO)cc21 + COc1c(OCCCN2CCOCC2)ccc2c3n(c(=NC(=O)c4cnc(N)nc4)nc12)CCN3 , the logged viability, T/C turned out to be 2.04

// viability, T/C value for Cn1cnc2c(F)c(Nc3ccc(Br)cc3Cl)c(C(=O)NOCCO)cc21 + CC(Nc1ccc2c(c1)OCCn1cc(N3C(=O)OCC3C(F)F)nc1-2)C(N)=O : 26.2

* * *

- Test system: 361931-004-R-J1-PDC multicell spheroid viability
- protocolNotes: Anticancer human tumor 361931-004-R-J1-PDC cell line growth inhibition [PI3K];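 further: spheroids exposed to agents for seven days before readout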
- testConditions: second compound 10 µM; first compound 0.0316 µM; hits give low values
observable: viability, T/C

For this compound ( CCN1CCN(Cc2ccc(Nc3ncc(F)c(-c4cc(F)c5nc(C)n(C(C)C)c5c4)n3)nc2)CC1 + Cc1nc(NC(=O)N2CCCC2C(N)=O)sc1-c1ccnc(C(C)(C)C(F)(F)F)c1 ), measured viability, T/C is 40.6%

For this compound ( Cn1nccc1Nc1nccc(-c2ccn(C(CO)c3ccc(Cl)c(F)c3)c(=O)c2)n1 (centres undefined) + CC(Nc1ncnc2nc[nH]c12)c1cc2cccc(Cl)c2c(=O)n1-c1ccccc1 ), measured viability, T/C is 109%

Kindly note the recorded viability, T/C for Cn1ncc(Cl)c1-c1cc(C(=O)NC(CN)Cc2cccc(F)c2)sc1Cl (centres undefined) + Cc1nc(NC(=O)N2CCCC2C(N)=O)sc1-c1ccnc(C(C)(C)C(F)(F)F)c1 , which is 77.2%

// viability, T/C value for CC(=O)c1c(C)c2cnc(Nc3ccc(N4CCNCC4)cn3)nc2n(C2CCCC2)c1=O + CC(Nc1ncnc2nc[nH]c12)c1cc2cccc(Cl)c2c(=O)n1-c1ccccc1 : 101%
